Molecular target: T1, DFNB31_2, Q9P202
T1 sequence (Q9P202 274-371, limits assumed, looked up): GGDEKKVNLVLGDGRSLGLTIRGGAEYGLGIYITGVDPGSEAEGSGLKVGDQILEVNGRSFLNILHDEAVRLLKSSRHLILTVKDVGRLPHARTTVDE
Test: holdup assay
Parameters: key: below the threshold = too weak to quantify, mostly under pKd 3.1 to 4
Conditions: plain residues with an end cap or a label only (N-terminal biotin on a linker: ttds)
MEASUREMENT_KIND: pKd

Below: 4 binders and their reported pKd.
- BINDER: "VLRLQSETSV [VANGL1, Q8TAA9]"
  pKd: "below the threshold"
- BINDER: "PKTPPTDTSV [KIR3DL3, Q8N743]"
  pKd: "below the threshold"
- BINDER: "GQDSREETQL [KCNT2, Q6UVM3]"
  pKd: "below the threshold"
- BINDER: "SVWLRKETRV [CYSLTR2, Q9NS75]"
  pKd: 3.73

Name the reported pKd value associated with the binder STLTIFETAL [ABCC4, O15439] below the threshold

The measured values listed here are drawn from paper PMC9482650.
